# Tested target: T1, human IL-2 (human, UniProt P60568 21-153, biotin label in the IL2RB blocking assay)
# T1 construct: also called biotin-labeled IL-2 (Acro Biosystems IL2-H82E4)
# T1 sequence (P60568 21-153 limits assumed): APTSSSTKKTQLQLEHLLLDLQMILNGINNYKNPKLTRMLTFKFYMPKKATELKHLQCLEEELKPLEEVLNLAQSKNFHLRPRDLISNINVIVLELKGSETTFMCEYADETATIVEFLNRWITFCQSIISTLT
# Assay overview: HTRF
Classify by IL2 Binding (HTRF signal). Ranges: range A = under 300, range B = from 300 up to 1000, range C = 1000 and over

Known results for binders:
PD1-IL2-R02-A08 (scFv) scFv: QVQLVQSGAEVKKPGASVKVSCKVSGYTFTSYDINWVRQAPGQGLEWMGWINPNSGDTGYAQKFQGRVTMTRDTSTSTVYMELSSLRSEDTAVYYCARDTGLGYYYGSGDFDYWGQGTLVTVSSASGGGGSGGGGSGGGGSHASDIQMTQSPSSLSASVGDRVTITCQASQDIHNYLNWYQQKPGKAPKLLIYDVSNLETGVPSRFSGSGSGTDFTLTISSLQPEDFATYYCQQAISFPLTFGGGTKVEIK ... range B
PD1-R04-C10 (scFv) MSTSTEQKLISEEDLQVQLVQSGAEVKKPGASVKVSCKASGYTFTTYYMHWVRQAPGQGLEWMGIINPSGGGTLYAQKFQGRVTMTRDTSTSTVYMELSSLRSEDTAVYYCAAGLFIWGQGTTVTVSSASGGGGSGGGGSGGGGSHASDIVMTQSPDSLAVSLGERATINCKASQSLLHSSSNKNYLAWYQQKPGQPPKLLIYWASTRESGVPDRFSGSGSGTDFTLTISSLQAEDVAVYYCQQYYSTPITFGPGTKVDIKGSGLNDIFEAQKIEWHEGKPIPNPLLGLDST ... range A
PD1-IL2-R02-B07 (scFv) scFv: QVQLVQSGAEVKKPGASVKVSCKASGDTFTRHYVHWVRQAPGQGLEWMGIINPSGGYASYAQKFQGRVTMTRDTSTSTVYMELSSLRSEDTAVYYCAAGLFIWGQGTLVTVSSASGGGGSGGGGSGGGGSHASDIQMTQSPSSLSASVGDRVTITCRASQSIGRWLAWYQQKPGKAPKLLIYSASNLETGVPSRFSGSGSGTDFTLTISSLQPEDFATYYCQQANSFPVTFGPGTKVDIK ... range B
PD1-R07-A05 (scFv) scFv: QVQLVQSGAEVKKPGASVKVSCKASGYTFTTYYVHWVRQAPGQGLEWMGIINPSGGSTSYAQNFQGRVTMTRDTSTSTVYMELSSLRSEDTAVYYCASGWDVWGQGTTVTVSSASGGGGSGGGGSGGGGSHASEIVMTQSPATLSVSPGERATLSCRASQSVNTYLAWYQQKPGQAPRLLIYGASTRATGIPARFSGSGSGTEFTLTISSLQSEDFAVYYCQQYGSSPVTFGQGTRLEIK ... range A
PD1-IL2-R06-E04 (scFv, cell-free expressed, V5-tagged) scFv: QVQLVQSGAEVKKPGASVKVSCKASGYTFTRYYIHWVRQAPGQGLEWMGWINAYNGDTNYAQKLQGRVTMTRDTSTSTVYMELSSLRSEDTAVYYCARDSYYYDSFDYWGQGTLVTVSSASGGGGSGGGGSGGGGSHASDIQMTQSPSSLSASVGDRVTITCRASQTITDWLAWYQQKPGKAPKLLIYGASNLQGGVPSRFSGSGSGTDFTLTISSLQPEDFATYYCQQYYSSWTFGQGTKVEIK ... range A

Query :: For PD1-IL2-R07-A09 (scFv, cell-free expressed, V5-tagged) scFv: QVQLVQSGAEVKKPGASVKVSCKASGYTFTSYYMHWVRQAPGQGLEWMGIINPSDGSTTYAQSFQGRVTMTRDTSTSTVYMELSSLRSEDTAVYYCASGWDVWGQGTLVTVSSASGGGGSGGGGSGGGGSHASDIVMTQSPDSLAVSLGERATINCKSSQSVFSSANNKNYLAWYQQKPGQPPKLLIYWASTRESGVPDRFSGSGSGTDFTLTISSLQAEDVAVYYCQQYFGTPVTFGGGTKVEIK , which IL2 Binding (HTRF signal) bin applies?
Result :: range C

Query :: Hi, small favor: classify PD1-IL2-R02-A11 (scFv) scFv: QVQLVQSGAEVKKPGASVKVSCKASGHTFTRYYMHWVRQAPGQGLEWMGIINPSGGYATYAQKFQGRVTMTRDTSTSTVYMELSSLRSEDTAVYYCASGWDVWGQGTLVTVSSASGGGGSGGGGSGGGGSHASDIQMTQSPSSLSASVGDRVTITCRASQSINSWLAWYQQKPGKAPKLLIYATSTLESGVPSRFSGSGSGTDFTLTISSLQPEDFATYYCQQSYSFPPTFGQGTKVEIK by its IL2 Binding (HTRF signal) when you get a moment.
Result :: range C

Query :: Textbook exercise: identify the category of the binder given here, PD1-IL2-R02-B05 (scFv) scFv: QVQLVQSGAEVKKPGASVKVSCKASGYTFTNYYIHWVRQAPGQGLEWMGIINPRAGYTSYALKFQGRVTMTRDTSTSTVYMELSSLRSEDTAVYYCAGGWLDWGQGTLVTVSSASGGGGSGGGGSGGGGSHASDIQMTQSPSSLSASVGDRVTITCRASQSISSWLAWYQQKPGKAPKLLIYAASSLQSGVPSRFSGSGSGTDFTLTISSLQPEDFATYYCQQSFTMPITFGQGTRLEIK , according to its measured value.
Result :: range C
